meta.source: patent US10597388B2

System: barley, winter (winter barley, Hordeum vulgare)
Assay: Test D controlled growth environment herbicide test, pre- and postemergence
Assay type: in vivo
Details: Postemergence, 250 g ai/ha; scale 0 to 100 (0 no effect, 100 complete control)
property_name: Plant response rating, Barley, Winter

structure_smiles_string	assay_value
Cc1nn(C)c(=O)c(-c2cccc3ccc(Br)cc23)c1O	0
Cc1nn(C)c(=O)c(-c2ccc(F)c3ccccc23)c1O	35
Cc1ccc2ccccc2c1-c1c(O)c(Br)nn(C)c1=O	30
Cc1ccc2sc(Br)c(-c3c(O)c(C)nn(C)c3=O)c2c1	5
Cc1cc(C)c2ccccc2c1-c1c(O)c(C)nn(C)c1=O	40
